cynoPDGF-BB NIH-3T3 Proliferation IC50 values, listed per item
- testSystem: T1, Cynomolgus monkey PDGF-BB (cynomolgus monkey, UniProt P01127 82-190 (human entry), limits assumed)
- T1 chain: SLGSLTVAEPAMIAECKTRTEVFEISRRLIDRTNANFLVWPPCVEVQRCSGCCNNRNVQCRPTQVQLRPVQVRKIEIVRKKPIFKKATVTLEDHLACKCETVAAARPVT
- testDescription: cell-based or functional assay
Please reply with the bare figure in nM and do not write the unit itself.

So what does the record say about cynoPDGF-BB NIH-3T3 Proliferation IC50 for CL-33731-IgG (antibody, V domains shown) VH: EVTLRESGPALVKPTQTLTLTCTFSGFSLSTYGMGVGWIRQPPGKALEWLANIWWDDDKYYNPSLKNRLTISKDTSKNQVVLTMTNMDPVDTATYYCARIESIPTSYSFDYWGQGTMVTVSS VL: EIVLTQSPGTLSLSPGERATLSCERSSGSIWQSYVSWYQQKPGQAPRLVIYADDQRATGIPDRFSGSGSGTDFTLTISRLEPEDFAVYYCQSYDIDIDVVFGGGTKVEIK ?
0.023

# ---- query binder ----
Can you share its cynoPDGF-BB NIH-3T3 Proliferation IC50? I mean this binder: CL-33699-IgG (antibody, V domains shown) VH: EVTLRESGPALVKPTQTLTLTCTFSGFSLSTYGMGIGWIRQPPGKALEWLANIWWDDDKYYNPSLKNRLTISKDTSKNQVVLTMTNMDPVDTATYYCARIESMGPKYAFDYWGQGTMVTVSS VL: EIVLTQSPGTLSLSPGERATLSCRASSGSIWYSFVSWYQQKPGQAPRLLIYADDQRASGIPDRFSGSGSGTDFTLTISRLEPEDFAVYYCQSYGINIDVVFGGGTKVEIK
0.016
